The values you see were collected from patent US20160193206A1.

The compounds listed here are annotated with their IC50.
study target: BRD4 bromo domain 2 [BRD4(2)] (Homo sapiens)
Construct: N-terminally His6-tagged BRD4(2) (amino acids 357-445)
assay procedure: BRD4(2)/acetylated peptide H4 binding assay (TR-FRET)
condition notes: inhibition of interaction between His6-tagged BRD4(2) (amino acids 357-445) and acetylated histone H4 peptide
measured endpoint: IC50 (µM)

| compound | experimental result |
| --- | --- |
| C[C@@H]1C(=O)N(C)c2ccc(Nc3ccc(S(=O)(=O)NCCN(C)C)cc3)nc2N1C1CCOCC1 [Example 24] | 0.076 |
| C[C@@H]1C(=O)N(C)c2ccc(Nc3ccc(S(=O)(=O)N(C)C)cc3)nc2N1C1CCCCC1 [Example 17] | 0.111 |
| COc1cc(S(=O)(=O)N[C@H]2CC[C@H](N3CCN(CC4CC4)CC3)CC2)ccc1Nc1ccc2c(n1)N(C1CCOCC1)[C@H](C)C(=O)N2C [Example 111] | 0.13 |
| COc1cc(C(=O)NCCN2CCN(C)CC2)ccc1Nc1ccc2c(n1)N(Cc1ccccc1)[C@H](C)C(=O)N2C [Example 82] | 0.048 |
